B1: CD2-associated protein, residues 271 to 331; numbered along this chain, Q9Y5K6 (parent)
chain: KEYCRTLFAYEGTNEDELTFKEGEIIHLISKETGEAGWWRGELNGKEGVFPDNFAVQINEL

- Variants of: B1
- run.description: abundance fitness (aPCA) (normalised: wild type 0, dead -1); higher = more abundant; growth selection in yeast, the domain comes from the species named
- test.settings: Homo sapiens
Binary call on abundance fitness: condition met from -0.2 upward, condition not met beneath that.

Reference set (8 entries):
   variant  assigned_category
0     N44F  condition not met
1     K31F  condition not met
2      A9P      condition met
3      T6N  condition not met
4      R5D  condition not met
5     V56S  condition not met
6     K46M  condition not met
7     N44A      condition met

Reported abundance fitness reaches at least -0.2 for W39K ?
condition not met

Please tell me: is the variant G34R at or over -0.2 in terms of abundance fitness?
condition not met

abundance fitness >= -0.2 for G12E ?
condition not met
